# Assay system: SARS-CoV-2 open reading frame (ORF) 8 (SARS-CoV-2, UniProt P0DTC8 16-121)
# Sequence (P0DTC8 16-121): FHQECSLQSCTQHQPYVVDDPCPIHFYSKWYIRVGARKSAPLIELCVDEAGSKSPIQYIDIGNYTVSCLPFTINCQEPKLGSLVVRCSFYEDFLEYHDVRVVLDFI
# Assay procedure: SPR
Endpoint label: Kd (nM)

binder="LLGDFFRKSKEKIGKEFKRIVQRIKDFLRNLVPRTES [LL-37]" endpoint_label=Kd numeric_readout=290
